- Tested on: DU-145
- TEST DESCRIPTION: NCI tumour cell line growth inhibition, 48 h
Active and inactive are the calls of the source. No stated cut-off is given here; in the data, active = GI50 up to about 1.1 µM and inactive = higher.
MEASURED METRIC: GI50

These solved cases illustrate the format of a correct answer.
| COMPOUND | MEASURED ON | GI50 |
| --- | --- | --- |
| CCC(C)C(=O)OC1CC2(C)C(c3ccoc3)OC(=O)CC23OC2(C)OC34C(OC(=O)C(C)C)C3(O)C(OC(=O)C5(C)OC5C)C5(C)CC3(O)C(C)(C5CC(=O)OC)C14O2 (stereo not given) | DU-145 | 68.2 µM (inactive) |
| COc1ccc(/C=C/c2nccc3ccccc23)cc1OC | DU-145 | > 10 µM (inactive) |

q: Identify measured GI50 obtained with DU-145 for Cc1ccc(O)c(C2=NNC(c3cccc(Br)c3)C2)c1 (stereo not given) .
a: 81.3 µM (inactive)

q: Identify measured GI50 obtained with DU-145 for S=C1N(/N=C/c2c3ccccc3cc3ccccc23)C(=N\c2ccccc2)/C(=N/c2ccccc2)N1c1ccccc1 .
a: > 100 µM (inactive)

q: Identify measured GI50 obtained with DU-145 for COC1(CC[C@H](C)COC2OC(CO)C(O)C(O)C2O)O[C@H]2C[C@H]3[C@@H]4CC=C5C[C@@H](OC6OC(CO)C(O)C(OC7OC(CO)C(O)C(O)C7O)C6OC6OC(C)C(O)C(O)C6O)CC[C@]5(C)[C@H]4CC[C@]3(C)[C@H]2[C@@H]1C (stereo not given in full) .
a: 2 µM (inactive)

q: Identify measured GI50 obtained with DU-145 for CN(C1=NCCO1)c1cccc2ccccc12 .
a: > 10 µM (inactive)

q: Identify measured GI50 obtained with DU-145 for CC(=O)/C(=C/NC(=S)c1ccncc1)C(=O)Nc1ccccc1C .
a: > 100 µM (inactive)

q: Identify measured GI50 obtained with DU-145 for CC(C)(C)c1cc(C(O)(C(=O)O)C(=O)O)cc(C(C)(C)C)c1O .
a: > 100 µM (inactive)

----------
- System: OVCAR-8
- TEST DESCRIPTION: NCI tumour cell line growth inhibition, 48 h
Calls of active or inactive are those of the source. Cut-off read from the data, not from the text of the source: active = GI50 up to about 1.1 µM and inactive = higher.
Outcome field: choose from Yes = active, No = inactive

| COMPOUND | ANSWER LABEL |
| --- | --- |
| Cc1c2c(n(CCc3ccc(Cl)cc3)c1C)NC(c1ccccc1)C(C#N)S2(=O)=O (configuration not stated) | No |
| CCC(C)C(=O)OC1CC2(C)C(c3ccoc3)OC(=O)CC23OC2(C)OC34C(OC(=O)C(C)C)C3(O)C(OC(=O)C5(C)OC5C)C5(C)CC3(O)C(C)(C5CC(=O)OC)C14O2 (configuration not stated) | No |

q: Please indicate how the test categorized CC12CCC(=O)[C@@]1(C)CCCC2O (some centres not stated) .
a: No

q: Please indicate how the test categorized CC(C)(C)OC(=O)NCC(CNC(=O)OC(C)(C)C)C(N)=O .
a: No

----------
- System: BT-549
- TEST DESCRIPTION: NCI tumour cell line growth inhibition, 48 h
Calls of active or inactive are those of the source. No stated cut-off is given here; in the data, active = GI50 up to about 1.1 µM and inactive = higher.
Outcome field: choose from yes (active), no (inactive)

Worked examples, 3 compounds total:
| COMPOUND | ANSWER LABEL |
| --- | --- |
| COc1cc(O)c2c(=O)c(OC)c(-c3ccc(OC)c(OC)c3)oc2c1.[Zn+2] | no |
| CCOC(=O)Cc1csc(N/N=C2\C(=O)Nc3ccccc32)n1 | no |
| CCOC(=O)C(NCc1cccc(C(F)(F)F)c1)(NC(=O)CC)C(F)(F)F (centres undefined) | no |

q: Please indicate how the test categorized S=C1N(/N=C/c2c3ccccc3cc3ccccc23)C(=N\c2ccccc2)/C(=N/c2ccccc2)N1c1ccccc1 .
a: no
